Biological target: 5-HT transporter (h) (Homo sapiens, UniProt P31645)
Sequence (P31645 whole entry): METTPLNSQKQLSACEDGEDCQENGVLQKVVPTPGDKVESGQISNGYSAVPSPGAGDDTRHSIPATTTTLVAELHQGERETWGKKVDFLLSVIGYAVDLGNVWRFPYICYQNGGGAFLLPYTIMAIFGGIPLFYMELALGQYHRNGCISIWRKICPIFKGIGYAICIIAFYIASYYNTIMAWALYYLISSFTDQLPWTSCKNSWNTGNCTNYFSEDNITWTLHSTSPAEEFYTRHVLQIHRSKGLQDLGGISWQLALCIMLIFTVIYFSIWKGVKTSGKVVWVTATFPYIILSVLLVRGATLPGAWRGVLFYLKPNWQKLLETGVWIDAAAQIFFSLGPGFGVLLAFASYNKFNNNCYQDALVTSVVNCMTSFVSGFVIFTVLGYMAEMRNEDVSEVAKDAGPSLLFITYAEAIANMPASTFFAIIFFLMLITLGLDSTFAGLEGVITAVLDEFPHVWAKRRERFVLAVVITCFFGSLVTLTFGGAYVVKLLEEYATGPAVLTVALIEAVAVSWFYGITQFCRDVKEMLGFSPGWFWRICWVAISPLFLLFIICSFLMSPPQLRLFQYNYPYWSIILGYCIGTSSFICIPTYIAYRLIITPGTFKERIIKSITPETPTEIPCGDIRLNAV
Assay: 5-HT transporter (h) antagonist radioligand binding assay, human recombinant CHO cells, [3H]imipramine
Conditions: read-out: IC50 for inhibition of binding at the serotonin transporter
Measured quantity: IC50
Give me the value, and tack the unit on after it.

input: Entry `CNCCC[C@](C#N)(c1ccc(OC)c(OC)c1)C(C)C` has what IC50?
output: 47 nM

---

Target: 5-HT transporter (h) (Homo sapiens)
Test: 5-HT transporter (h) antagonist radioligand binding assay, human recombinant CHO cells, [3H]imipramine
Conditions: Table 1-4; Cheng Prusoff
Measured quantity: Ki (nM)
Only the number, expressed in nM, is required.

input: Data request, read-out Ki, for `CNCCC[C@](C#N)(c1ccc(OC)c(OC)c1)C(C)C`
output: 22

---

Biological target: 5-HT uptake (rat brain synaptosomes) (Rattus norvegicus, UniProt P31652)
Sequence (P31652 whole entry): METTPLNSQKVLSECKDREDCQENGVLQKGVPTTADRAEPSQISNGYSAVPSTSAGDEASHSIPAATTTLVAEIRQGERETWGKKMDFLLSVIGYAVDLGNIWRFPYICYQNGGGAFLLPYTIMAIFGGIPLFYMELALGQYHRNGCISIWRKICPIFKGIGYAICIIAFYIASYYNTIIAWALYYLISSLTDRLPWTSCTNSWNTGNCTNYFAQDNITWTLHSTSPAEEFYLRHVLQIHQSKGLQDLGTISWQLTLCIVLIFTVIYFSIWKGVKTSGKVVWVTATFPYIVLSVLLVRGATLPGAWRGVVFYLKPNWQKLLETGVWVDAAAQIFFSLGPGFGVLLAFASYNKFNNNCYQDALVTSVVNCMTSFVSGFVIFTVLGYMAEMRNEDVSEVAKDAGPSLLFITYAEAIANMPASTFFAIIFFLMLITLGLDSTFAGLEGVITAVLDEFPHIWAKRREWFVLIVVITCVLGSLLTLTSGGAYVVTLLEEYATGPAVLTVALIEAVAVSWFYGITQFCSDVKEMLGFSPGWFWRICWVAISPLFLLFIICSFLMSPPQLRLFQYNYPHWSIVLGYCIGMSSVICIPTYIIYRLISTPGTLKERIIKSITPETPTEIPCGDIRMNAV
Assay: In vitro 5-HT uptake assay using rat brain synaptosomes
Settings: Table 2-1; 5-HT uptake
Measured quantity: IC50 (nM)
Write down the numeric answer in nM and omit the unit.

input: Query the reported IC50 for 5-HT uptake (rat brain synaptosomes) (Rattus norvegicus, UniProt P31652); item: `CNCCC[C@](C#N)(c1ccc(OC)c(OC)c1)C(C)C`
output: 240
